Recorded values, source patent US20080206332A1.

# Measurement Notes: Pharmacokinetics of R-baclofen in dogs after oral dosage forms of compound (1)
# Set-up: species or system Beagle dogs
# Run Conditions: dog, in vivo, iv, 10 mg-eq/kg R-baclofen administered intravenously
Measure: AUC(0-inf)
Give your result as the value with the unit written after it.

What value of AUC(0-inf) has been recorded for this entry: NC[C@H](CC(=O)O)c1ccc(Cl)cc1 [R-baclofen, R-(−)-baclofen]
1980 ng·h/mL
